read-out: Forkhead box O1 (FOXO1), FOXO1 (gene 2308); assay: LTEA_HepaRG_FOXO1: Life Technologies and Expression Analysis (LTEA) Assay for Forkhead box O1 (FOXO1) using HepaRG (AID 2283456); details: mRNA level, 48 h; actives raise or lower the signal
The source made the active and inactive calls. How the source made its calls: active means hit-call score of the fitted dose curve at least 0.9, where 1 is the maximum; inactive means score below 0.9.
reported-metric: outcome

compound: N[C@@H](Cc1c[nH]c2ccccc12)C(=O)O
outcome: inactive

compound: CC(=O)[C@@]1(O)CC[C@H]2[C@@H]3CCC4=CC(=O)CC[C@]4(C)[C@H]3CC[C@@]21C
outcome: inactive

compound: CCCCCCC(CCCCCCCCCCC(=O)OCC(COC(C)=O)OC(C)=O)OC(C)=O (stereo unspecified)
outcome: inactive

compound: CC(=O)S[C@H](C(=O)N[C@H]1Cc2ccccc2[C@H]2CCC[C@@H](C(=O)O)N2C1=O)C(C)C
outcome: inactive

compound: CC1(C)C(=O)NC(=O)N1CO
outcome: inactive

Fill in: outcome of CC(=O)OCC(COC(C)=O)OC(C)=O is ___
inactive
